- target-under-test: T1, human GIP receptor (human, UniProt P48546 22-466)
- T1 sequence (looked up): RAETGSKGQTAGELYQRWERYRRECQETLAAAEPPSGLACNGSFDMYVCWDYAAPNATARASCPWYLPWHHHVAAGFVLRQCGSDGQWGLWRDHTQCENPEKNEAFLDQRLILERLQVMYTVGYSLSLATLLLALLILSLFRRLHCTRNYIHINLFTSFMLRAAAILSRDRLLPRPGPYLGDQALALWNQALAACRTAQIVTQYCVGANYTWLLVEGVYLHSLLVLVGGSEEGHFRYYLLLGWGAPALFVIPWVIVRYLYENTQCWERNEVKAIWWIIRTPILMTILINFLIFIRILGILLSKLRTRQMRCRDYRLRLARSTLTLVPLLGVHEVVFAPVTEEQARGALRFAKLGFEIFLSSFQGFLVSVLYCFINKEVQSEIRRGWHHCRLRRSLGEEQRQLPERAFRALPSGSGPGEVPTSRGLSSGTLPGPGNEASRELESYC
- assay-notes: cell-based or functional assay
*1 amine or outer side, *2 acyl side, *3 side chain or, on linkers, in order; H or OH if unused. Where no end group is shown, it is not given here. Side-chain parts run from the residue outwards. [ ]: non-standard residue; d: D form. The star is where a group is joined. C20 diacid = O=C(O)CCCCCCCCCCCCCCCCCCC(=O)*; C18 diacid = O=C(O)CCCCCCCCCCCCCCCCC(=O)*; γGlu = O=C(O)[C@H](CCC(=O)[*:2])N[*:1]; Trx = NC[C@H]1CC[C@H](C(=O)O)CC1; Nle = CCCC[C@H](N)C(=O)O; Aib = CC(C)(N)C(=O)O
Exercise: for every item that follows, state its recorded EC50, hGIP-R CRE Luc, 0.2% HSA.
Output spec: scalar in nM, unitless text.

Entry Y[Aib]EGTFISDYSIA[Nle]DAIRQQDFVK([γGlu-γGlu-γGlu-C18 diacid])WLLAQKG : reported EC50, hGIP-R CRE Luc, 0.2% HSA = ? 0.0725

Entry Y[Aib]EGTFISDYSIA[Nle]DKIHQQDFVK([γGlu-γGlu-γGlu-C18 diacid])WLLAQKGKEDDWKHNITQ : reported EC50, hGIP-R CRE Luc, 0.2% HSA = ? 0.0059

Entry YAEGTFISDYSIAMDKIHQQDFVNWLLAQKG (ligand) [hGIP(1-31)] : reported EC50, hGIP-R CRE Luc, 0.2% HSA = ? 0.00224

Entry Y[Aib]EGTFISDYSIA[Nle]DKIHQQDFVK([γGlu-γGlu-γGlu-C18 diacid])WLLAQKGKEEDWKHNITQ : reported EC50, hGIP-R CRE Luc, 0.2% HSA = ? 0.009

Entry Y[Aib]EGTFISDYSIA[Nle]DAIRQQDFVK([γGlu-γGlu-γGlu-Trx-C20 diacid])WLLAQKG : reported EC50, hGIP-R CRE Luc, 0.2% HSA = ? 0.266

Entry Y[Aib]EGTFISDYSIA[Nle]DKIHQEDFVK([γGlu-γGlu-γGlu-γGlu-Trx-C20 diacid])WLLAQKG : reported EC50, hGIP-R CRE Luc, 0.2% HSA = ? 0.81

Entry Ac-[dY]AEGTFISDYSIA[Nle]DKIRQQDFVK([γGlu-γGlu-γGlu-Trx-C20 diacid])WLLAQKP-NH2 : reported EC50, hGIP-R CRE Luc, 0.2% HSA = ? 0.0762

Entry Y[Aib]EGTFISDYSIA[Nle]DKIRQ[Aib]DFVK([γGlu-γGlu-γGlu-Trx-C20 diacid])WLLAQKG : reported EC50, hGIP-R CRE Luc, 0.2% HSA = ? 0.0712

Entry Y[Aib]EGTFISDYSIA[Nle]DKIHQQDFVK([γGlu-γGlu-γGlu-C18 diacid])WLLAQKGKENDWKHNITQ : reported EC50, hGIP-R CRE Luc, 0.2% HSA = ? 0.0213

FYI, the data here is from patent US20220000982A1.
